System: BDF1 mice, P388 leukemia ip, median survival T/C
runDescription: NCI In Vivo Anticancer Drug Screen. Data for tumor model P388 Leukemia (intraperitoneal) in B6D2F1 (BDF1) mice
conditionNotes: endpoint: median survival time; dose: 200.0 mg/kg/injection; schedule: Q01DX009 (ip); vehicle: Klucel (hydroxypropylcellulose) (HPC)
Inconclusive results and toxic doses are left out. The calls were made as follows: active = survival T/C of 150% or more; inactive = T/C below 125% in these data.
Give one outcome, nothing more. List: label 1 for active, label 0 for inactive

Asked: State the result this test recorded for Cc1ccccc1C1c2ccccc2C(=O)c2cccc(C)c21 (stereo unspecified) .
Given back: label 0

Asked: State the result this test recorded for `CCOC(=O)c1ccc(NC(=O)Nc2c(C)n(C)n(-c3ccccc3)c2=O)cc1` .
Given back: label 0

Asked: State the result this test recorded for `ClC(Cl)C(Cl)(Cl)C(Cl)(Cl)Cl` .
Given back: label 0

Asked: State the result this test recorded for `CC(=O)NNc1ccc([N+](=O)[O-])cc1` .
Given back: label 0

Asked: State the result this test recorded for CC1C(N2CCOCC2)CS1(=O)=O (stereo unspecified) .
Given back: label 0

Asked: State the result this test recorded for CCC(=O)OC1CC2C3CCC4=CC(=O)CCC4(C)C3CCC2(C)C1OC(=O)CC (stereo unspecified) .
Given back: label 0

Asked: State the result this test recorded for `S=C(Nc1ccccn1)Nc1ccccn1` .
Given back: label 0

Asked: State the result this test recorded for COc1cc2c(cc1OC)C(OC)N(C)c1c-2ccc2cc3c(cc12)OCO3 (stereo unspecified) .
Given back: label 1

Asked: State the result this test recorded for `COc1cc2c(c(OC)c1OC)CC/C(=C\O)C2=O` .
Given back: label 0

Asked: State the result this test recorded for `O=[N+]([O-])c1ccc(N=N/C(Cc2ccccc2)=N\Nc2ccccc2)cc1` .
Given back: label 0

Asked: State the result this test recorded for `CSc1ssc(=Nc2ccc(C)cc2)c1-c1ccccc1` .
Given back: label 0

Asked: State the result this test recorded for `Cc1ccc(CSc2ssc(=S)c2-c2ccccc2)cc1` .
Given back: label 0

Asked: State the result this test recorded for `COc1ccc(OC)c(NC(=O)Sc2c(Cl)c(Cl)nc(Cl)c2Cl)c1` .
Given back: label 0

Asked: State the result this test recorded for `C(=C\CN(Cc1ccccc1)Cc1ccccc1)/CN(Cc1ccccc1)Cc1ccccc1` .
Given back: label 0

Asked: State the result this test recorded for `COc1cc2c(cc1OC)-c1ncnc(-c3ccccc3)c1C2` .
Given back: label 0

Asked: State the result this test recorded for `COc1ccccc1NC(=O)CSC(N)=O` .
Given back: label 0

###

Test system: BDF1 mice, P388 leukemia ip, median survival T/C
runDescription: NCI In Vivo Anticancer Drug Screen. Data for tumor model P388 Leukemia (intraperitoneal) in B6D2F1 (BDF1) mice
conditionNotes: endpoint: median survival time; dose: 50.0 mg/kg/injection; schedule: Q01DX009 (ip); vehicle: saline with Tween-80; higher = longer survival
Protocol: The antitumor activity of compounds was measured in mice bearing transplantable tumors. Survival or tumor size were measured and the results are expressed as the measurement made in the treated group (T) divided by the measurement made in the vehicle treated control group (C). The tumor model used in this assay is P388 Leukemia (intraperitoneal) in B6D2F1 (BDF1) mice
Inconclusive results and toxic doses are left out.
For each record, write down the corresponding T/C.

Asked: // output T/C; input `CCCC/C=C/CO` ; system BDF1 mice, P388 leukemia ip, median survival T/C
Given back: 108 % of control

Asked: // output T/C; input `CCCC(=O)OCc1ccccn1` ; system BDF1 mice, P388 leukemia ip, median survival T/C
Given back: 107 % of control

Asked: // output T/C; input `CCOC(=O)C1=C(O)c2c(sc(C)c2C)N(S(=O)(=O)c2ccc(C)cc2)CC1` ; system BDF1 mice, P388 leukemia ip, median survival T/C
Given back: 113 % of control

###

Tested on: BDF1 mice, P388 leukemia ip, median survival T/C
runDescription: NCI In Vivo Anticancer Drug Screen. Data for tumor model P388 Leukemia (intraperitoneal) in B6D2F1 (BDF1) mice
conditionNotes: endpoint: median survival time; dose: 200.0 mg/kg/injection; schedule: Q01DX009 (ip); vehicle: saline; higher = longer survival
Inconclusive results and toxic doses are left out.
propertyLabel: T/C

Asked: Given the compound `CCOP(=O)(OCC)OCCCN(CC)CC` , write its reported T/C.
Given back: 89 % of control

Asked: Given the compound COc1ccc2c(c1)C1(C)CCN(C)CC(C1)C2O (centres undefined) , write its reported T/C.
Given back: 92 % of control

Asked: Given the compound `N#Cc1cnccn1` , write its reported T/C.
Given back: 100 % of control

Asked: Given the compound CCC1OC(=O)C(C)C(OC2CC(C)(O)C(O)C(C)O2)C(C)C(O)C(C)(O)CC(C)C(=O)C(C)C(O)C1C (centres undefined) , write its reported T/C.
Given back: 94 % of control

Asked: Given the compound COC1CCCCC1Br (centres undefined) , write its reported T/C.
Given back: 109 % of control

Asked: Given the compound `CCOc1ccc(Br)cc1/C=C/C(C)=O` , write its reported T/C.
Given back: 95 % of control

Asked: Given the compound `CNC(=O)NCCOC(=O)NC` , write its reported T/C.
Given back: 100 % of control

Asked: Given the compound `NC(=O)NCCNC(N)=O` , write its reported T/C.
Given back: 95 % of control

Asked: Given the compound `CCOC(=O)CCN(C)C` , write its reported T/C.
Given back: 95 % of control

Asked: Given the compound `O=[N+]([O-])c1ccccc1C=Nc1ccccc1` , write its reported T/C.
Given back: 90 % of control

Asked: Given the compound CC1C=CC(=O)O1 (centres undefined) , write its reported T/C.
Given back: 112 % of control

Asked: Given the compound `C[N+](C)(C)CC[N+](C)(C)C` , write its reported T/C.
Given back: 101 % of control

Asked: Given the compound COC1OC(CO)C(O)C(O)C1O (centres undefined) , write its reported T/C.
Given back: 106 % of control

Asked: Given the compound `O=C(CCl)NCc1cnccn1` , write its reported T/C.
Given back: 102 % of control

###

For each record, write down the corresponding T/C.
Test system: BDF1 mice, P388 leukemia ip, median survival T/C
runDescription: NCI In Vivo Anticancer Drug Screen. Data for tumor model P388 Leukemia (intraperitoneal) in B6D2F1 (BDF1) mice
conditionNotes: endpoint: median survival time; dose: 400.0 mg/kg/injection; schedule: Q01DX009 (ip); vehicle: Klucel (hydroxypropylcellulose) (HPC); higher = longer survival
Inconclusive results and toxic doses are left out.

Asked: Given the molecule `O=C(CC(c1ccccc1)c1ccccc1)c1ccccc1` , write its reported T/C.
Given back: 91 % of control

Asked: Given the molecule O=C(OCC1OC(n2cnc3c(=S)nc[nH]c32)C(OC(=O)c2ccc([N+](=O)[O-])cc2)C1OC(=O)c1ccc([N+](=O)[O-])cc1)c1ccc([N+](=O)[O-])cc1 (stereo unspecified) , write its reported T/C.
Given back: 118 % of control

Asked: Given the molecule Cc1ccccc1C1c2ccccc2C(=O)c2cccc(C)c21 (stereo unspecified) , write its reported T/C.
Given back: 100 % of control

Asked: Given the molecule `C/C(N=Nc1ccc([N+](=O)[O-])cc1)=N\Nc1ccccc1` , write its reported T/C.
Given back: 100 % of control

Asked: Given the molecule `O=C1/C(=C/c2cccc([N+](=O)[O-])c2)CCc2ccccc21` , write its reported T/C.
Given back: 104 % of control

Asked: Given the molecule `O=c1[nH]cc(CCc2ccccc2)c(=O)[nH]1` , write its reported T/C.
Given back: 92 % of control

###

For each record, write down the corresponding T/C.
System: BDF1 mice, P388 leukemia ip, median survival T/C
runDescription: NCI In Vivo Anticancer Drug Screen. Data for tumor model P388 Leukemia (intraperitoneal) in B6D2F1 (BDF1) mice
conditionNotes: endpoint: median survival time; dose: 400.0 mg/kg/injection; schedule: Q01DX009 (ip); vehicle: saline with Tween-80; higher = longer survival
Toxic doses and inconclusive results are not listed.

Asked: Given the compound `CC(C)=CCC/C(C)=C/COC(=O)Cc1ccccc1` , write its reported T/C.
Given back: 118 % of control

Asked: Given the compound `COc1cc(NC(=O)CC(C)=O)c(OC)cc1Cl` , write its reported T/C.
Given back: 104 % of control

Asked: Given the compound OC(CCl)COCC#Cc1ccccc1 (configuration not stated) , write its reported T/C.
Given back: 116 % of control

Asked: Given the compound `COc1ccc(CC(=O)NCCc2ccc3cc(OC)c(OC)cc3c2)cc1OC` , write its reported T/C.
Given back: 91 % of control

Asked: Given the compound `Brc1cnc(OCc2ccccc2)nc1OCc1ccccc1` , write its reported T/C.
Given back: 107 % of control

Asked: Given the compound COC(=O)C1(C)CCCC2(C)C1CCC13OCC(CC21)C(=C(C)C)C3OC(C)=O (configuration not stated) , write its reported T/C.
Given back: 90 % of control

Asked: Given the compound `C[C@]12CCC(=O)C=C1CC[C@@H]1[C@@H]2[C@@H](O)C[C@@]2(C)[C@H]1CC[C@]2(O)C(=O)COC(=O)COCC(=O)O` , write its reported T/C.
Given back: 109 % of control

Asked: Given the compound `Cc1ccc(S(=O)(=O)Oc2cc(C)ccc2C)cc1` , write its reported T/C.
Given back: 114 % of control

Asked: Given the compound CC1(C)CCC2(C)CC=C3OC(=O)CCC3(C)C2C1 (configuration not stated) , write its reported T/C.
Given back: 109 % of control

Asked: Given the compound CC(=O)OCC1OC(n2cnc3c(=S)nc[nH]c32)C(OC(C)=O)C1OC(C)=O (configuration not stated) , write its reported T/C.
Given back: 90 % of control

Asked: Given the compound `Nc1c(C(=O)O)cccc1C(=O)O` , write its reported T/C.
Given back: 113 % of control

Asked: Given the compound CCCCCCCCCCC(O)CN1CCN(c2ccc(C)cc2)CC1 (configuration not stated) , write its reported T/C.
Given back: 90 % of control

Asked: Given the compound CC(OC(=O)Nc1ccccc1)C(=O)O (configuration not stated) , write its reported T/C.
Given back: 103 % of control

Asked: Given the compound COC(=O)C(CSCSC)NC(=O)/C=C/c1ccc(C)cc1 (configuration not stated) , write its reported T/C.
Given back: 100 % of control

Asked: Given the compound `[OH-].[OH-].[Pd+2].c1ccc(CSc2ncnc3nc[nH]c23)cc1.c1ccc(CSc2ncnc3nc[nH]c23)cc1.c1ccc(CSc2ncnc3nc[nH]c23)cc1.c1ccc(CSc2ncnc3nc[nH]c23)cc1` , write its reported T/C.
Given back: 90 % of control

Asked: Given the compound `C=CCCCCCCCCC(=O)NCc1cccnc1` , write its reported T/C.
Given back: 100 % of control

Asked: Given the compound `C[C@]12CC[C@H]3[C@@H](CCC4=CC(=O)CC[C@@H]43)[C@@H]1CC[C@@H]2OC(=O)CCc1ccccc1` , write its reported T/C.
Given back: 90 % of control
